target: Menin/MLL (terbium chelate-labeled menin, FITC-MBM1 peptide) (Homo sapiens, UniProt O00255, T541A); construct: Menin (a.a. 1-610-6×his tag) was labeled with terbium cryptate as follows; assay: Menin/MLL homogenous time-resolved fluorescence (HTRF) assay; format: binding; conditions: averaged values over all measurements; read-out: Menin HTRF assay (IC50)
Simple rule here: IC50 less than 800 nM is 1 (yes), otherwise 0 (no).

COMPOUND	DISCRETE_LABEL
FC(F)(F)Cc1cc2c(N3C[C@H]4CCN(CCC5CCOCC5)C[C@H]4C3)ncnc2s1 (single isomer, unassigned)	1 (yes)

Pending compound:
Is 800 nM strictly greater than the compound's reported IC50? compound: FC(F)(F)Cc1cc2c(N3C[C@H]4CN(Cc5ccccc5)[C@H]4C3)ncnc2s1
0 (no)

----------
Target: Menin/MLL (menin, FITC-MBM1 peptide) (Homo sapiens, UniProt O00255, T541A)
Construct: 6xHis (C)
Sequence (O00255 with tags, fused parts or gaps T541A): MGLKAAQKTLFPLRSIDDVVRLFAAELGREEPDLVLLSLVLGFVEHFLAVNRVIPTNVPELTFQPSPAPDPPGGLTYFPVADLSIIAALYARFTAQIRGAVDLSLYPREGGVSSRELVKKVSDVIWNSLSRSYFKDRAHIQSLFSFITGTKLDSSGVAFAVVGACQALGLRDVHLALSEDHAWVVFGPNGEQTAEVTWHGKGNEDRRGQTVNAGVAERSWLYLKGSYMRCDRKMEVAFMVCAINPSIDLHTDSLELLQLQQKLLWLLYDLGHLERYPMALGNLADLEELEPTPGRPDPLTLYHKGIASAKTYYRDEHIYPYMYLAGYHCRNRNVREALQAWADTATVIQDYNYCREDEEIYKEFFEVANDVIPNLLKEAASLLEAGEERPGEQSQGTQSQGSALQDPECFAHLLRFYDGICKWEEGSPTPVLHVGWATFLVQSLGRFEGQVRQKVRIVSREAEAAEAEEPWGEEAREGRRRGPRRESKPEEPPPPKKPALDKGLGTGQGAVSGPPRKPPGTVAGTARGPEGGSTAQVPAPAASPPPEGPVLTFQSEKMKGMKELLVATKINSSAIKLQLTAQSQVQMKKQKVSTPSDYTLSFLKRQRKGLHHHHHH
Test: Menin/MLL fluorescence polarization (FP) assay
Assay type: binding
Conditions: averaged values over all measurements; read-out: Menin FP assay (IC50)
pIC50: −log10 of the molar value.
Mark class 1 for reported pIC50 of 6 or greater; mark class 0 for anything smaller.

COMPOUND	TARGET_OF_ASSAY	DISCRETE_LABEL
O=S(=O)(c1ccccc1)N1CC[C@H]2CN(c3ncnc4sc(CC(F)(F)F)cc34)CC[C@H]21 (single isomer, unassigned) [Compound 17]	Menin/MLL (menin, FITC-MBM1 peptide) (Homo sapiens, UniProt O00255, T541A)	class 0
FC(F)(F)Cc1cc2c(N3CCC4C3CCN4Cc3ccccc3)ncnc2s1 (stereo not shown) [Compound 2]	Menin/MLL (menin, FITC-MBM1 peptide) (Homo sapiens, UniProt O00255, T541A)	class 1
Cn1ccnc1CN1CCC2CN(c3ncnc4sc(CC(F)(F)F)cc34)CCC21 (stereo not shown) [Compound 19]	Menin/MLL (menin, FITC-MBM1 peptide) (Homo sapiens, UniProt O00255, T541A)	class 0

Proceed to the following item.
Reported pIC50 at or above 6? Cn1cc(CN2CC[C@H]3CN(c4ncnc5sc(CC(F)(F)F)cc45)CC[C@H]32)cn1 (single isomer, unassigned) [Compound 9]
class 1

----------
Where a name gives a salt, the structure may show the parent alone.
MEASUREMENT_LABEL: melting point (°C)
State the answer as a number, implicitly in °C.

COMPOUND	melting point (°C)
CC(C)CN1CC[C@H]2CN(c3ncnc4sc(CC(F)(F)F)cc34)C[C@H]2C1 (single isomer, unassigned) [Compound 69]	109
FC(F)(F)Cc1cc2c(N3C[C@H]4CCN(Cc5ccccc5)C[C@H]43)ncnc2s1 (single isomer, unassigned) [Compound 31]	150
O=C([C@@H]1CC2(CC2)CN1)N1CC[C@@H]2CN(c3ncnc4sc(CC(F)(F)F)cc34)C[C@@H]2C1 (single isomer, unassigned) [Compound 81]	112
FC(F)(F)Cc1cc2c(N3C[C@H]4CCN(CC5CCOCC5)C[C@H]4C3)ncnc2s1 (single isomer, unassigned) [Compound 70]	160
FC(F)(F)Cc1cc2c(N3CCC4C(CCN4Cc4ncc[nH]4)C3)ncnc2s1 (stereo not drawn) (as salt: HCl) [Compound 22]	140

Now turn to the next compound.
Reported melting point of CC(C)CN1CCC2CN(c3ncnc4sc(CC(F)(F)F)cc34)CCC21 (stereo not drawn) (as salt: HCl) [Compound 25] : 140

----------
Target: Menin/MLL (terbium chelate-labeled menin, FITC-MBM1 peptide) (Homo sapiens, UniProt O00255, T541A)
Construct: Menin (a.a. 1-610-6×his tag) was labeled with terbium cryptate as follows
Test: Menin/MLL homogenous time-resolved fluorescence (HTRF) assay
Type: binding
Details: averaged values over all measurements; read-out: Menin HTRF assay (IC50)
Method: 3) Menin/MLL Homogenous Time-Resolved Fluorescence (HTRF) Assay […] Compound potencies were determined by first calculating % inhibition at each compound concentration according to equation 1: % inhibition=((HC−LC)−(HTRF^compound−LC))/(HC−LC))*100 (Eqn 1) […]
MEASUREMENT_LABEL: IC50 (nM)
Could you give me the number in nM? Just the number is fine.

Consider the worked cases shown below.
MOLECULE	IC50 (nM)
C[C@H](c1cnn(C)c1)N1CC[C@@H]2CN(c3ncnc4sc(CC(F)(F)F)cc34)C[C@@H]2C1 (single isomer, unassigned) [Compound 79A]	955
O=c1cc(CN2CC[C@@H]3CN(c4ncnc5sc(CC(F)(F)F)cc45)C[C@@H]3C2)cc[nH]1 (single isomer, unassigned) [Compound 66]	492
CNc1cc(CN2CC[C@@H]3CN(c4ncnc5sc(CC(F)(F)F)cc45)C[C@@H]3C2)ccn1 (single isomer, unassigned) [Compound 107]	23
Cn1cc(CN2CC[C@@H]3CN(c4ncnc5sc(CC(F)(F)F)cc45)C[C@@H]32)cn1 [Compound 27A]	10000
Cn1cc(CN2CC3CCN(c4ncnc5sc(CC(F)(F)F)cc45)CC3C2)cn1 (stereo not shown) [Compound 34]	1980

Now turn to the next molecule.
# IC50 (molecule: Nc1ccc(CN2CC[C@@H]3CN(c4ncnc5sc(CC(F)(F)F)cc45)C[C@@H]3C2)cn1 (single isomer, unassigned) [Compound 105] ) is 11

----------
pIC50 by entry:
Biological target: Menin/MLL (terbium chelate-labeled menin, FITC-MBM1 peptide) (Homo sapiens, UniProt O00255, T541A)
Construct: Menin (a.a. 1-610-6×his tag) was labeled with terbium cryptate as follows
Sequence (O00255 with tags, fused parts or gaps T541A): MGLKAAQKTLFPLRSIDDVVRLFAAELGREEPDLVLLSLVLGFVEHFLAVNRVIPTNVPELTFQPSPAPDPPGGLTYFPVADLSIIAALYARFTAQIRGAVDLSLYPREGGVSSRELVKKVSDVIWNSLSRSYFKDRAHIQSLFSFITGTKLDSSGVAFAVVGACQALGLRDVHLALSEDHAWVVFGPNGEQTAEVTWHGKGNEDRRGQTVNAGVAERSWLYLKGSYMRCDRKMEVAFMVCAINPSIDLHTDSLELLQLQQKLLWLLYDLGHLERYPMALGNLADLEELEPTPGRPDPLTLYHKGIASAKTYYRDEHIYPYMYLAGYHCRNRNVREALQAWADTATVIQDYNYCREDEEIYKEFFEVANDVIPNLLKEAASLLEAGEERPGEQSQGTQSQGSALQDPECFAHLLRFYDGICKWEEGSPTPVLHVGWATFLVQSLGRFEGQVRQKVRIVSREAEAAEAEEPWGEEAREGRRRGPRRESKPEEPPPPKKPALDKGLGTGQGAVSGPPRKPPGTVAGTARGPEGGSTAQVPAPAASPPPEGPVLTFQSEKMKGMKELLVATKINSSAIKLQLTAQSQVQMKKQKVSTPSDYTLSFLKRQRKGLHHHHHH
Assay: Menin/MLL homogenous time-resolved fluorescence (HTRF) assay
Assay type: binding
Settings: averaged values over all measurements; read-out: Menin HTRF assay (IC50)
Protocol: 3) Menin/MLL Homogenous Time-Resolved Fluorescence (HTRF) Assay […] Compound potencies were determined by first calculating % inhibition at each compound concentration according to equation 1: % inhibition=((HC−LC)−(HTRF^compound−LC))/(HC−LC))*100 (Eqn 1) […]
Reminder that pIC50 means the negative base-10 logarithm of the concentration expressed in mol/L.

Sample answers from the record:
COMPOUND	REPORTED_VALUE
Cn1cncc1CN1CC[C@@H]2CN(c3ncnc4sc(CC(F)(F)F)cc34)C[C@@H]2C1 (single isomer, unassigned) [Compound 54]	7.01
CCOc1ccc(CN2CC[C@@H]3CN(c4ncnc5sc(CC(F)(F)F)cc45)C[C@@H]3C2)cn1 (single isomer, unassigned) [Compound 103]	6.97
FC(F)(F)Cc1cc2c(N3C[C@H]4CCN(CC5(F)CCOCC5)C[C@H]4C3)ncnc2s1 (single isomer, unassigned) [Compound 98]	6.30
Fc1ccc(CN2CC[C@@H]3CN(c4ncnc5sc(CC(F)(F)F)cc45)C[C@@H]3C2)cn1 (single isomer, unassigned) [Compound 37]	7.39
NCCn1cc(CN2CCC3CN(c4ncnc5sc(CC(F)(F)F)cc45)CCC32)cn1 (stereo not drawn) [Compound 26]	7.27

Next, consider the following compound.
What the record says about CC(C)CN1CC[C@@H]2CN(c3ncnc4sc(CC(F)(F)F)cc34)C[C@@H]21 (single isomer, unassigned) [Compound 28A] : pIC50 is 5.76
